assay_metric: glass transition temperature (°C)
Form entry: value (°C) — number only.

Which glass transition temperature is listed for */C=C/C1C/C(=C\C)C(*)C1 (repeat unit) ?
121.00

Which glass transition temperature is listed for *CC(*)(C)C(=O)OCCOCCOC (repeat unit) ?
57.00

Which glass transition temperature is listed for *CCCCCC(=O)Oc1ccc(OC(=O)CCCCCn2c(=O)c3cc4c(=O)n(*)c(=O)c4cc3c2=O)c(Cl)c1 (repeat unit) ?
87.00

Which glass transition temperature is listed for *CC(C)(C)C1C(=O)N(C2CCCCC2)C(=O)C1* (repeat unit) ?
192.00

Which glass transition temperature is listed for *OP(=O)(Oc1ccc([N+](=O)[O-])cc1)Oc1c(C)cc(S(=O)(=O)c2cc(C)c(*)c(C)c2)cc1C (repeat unit) ?
173.00

Which glass transition temperature is listed for *c1ccc(Oc2cccc(Oc3ccc(N4C(=O)c5ccc(Oc6ccc(C(=O)c7ccc(Oc8ccc9c(c8)C(=O)N(*)C9=O)cc7)cc6)cc5C4=O)cc3)c2)cc1 (repeat unit) ?
194.00

Which glass transition temperature is listed for *N=P(*)(OCCOCCOCCOP1(OCCOCCOC)=NP(OCCOCCOC)(OCCOCCOC)=NP(OCCOCCOC)(OCCOCCOC)=N1)OCCOCCOCCOP1(OCCOCCOC)=NP(OCCOCCOC)(OCCOCCOC)=NP(OCCOCCOC)(OCCOCCOC)=N1 (repeat unit) ?
-38.00

Which glass transition temperature is listed for *CCCCCCCCCCC(=O)N(*)C (repeat unit) ?
-12.00

Which glass transition temperature is listed for *Oc1cccc(Oc2cccc(*)c2)c1C#N (repeat unit) ?
145.00

Which glass transition temperature is listed for *CCC[Si](*)(C)O[Si](C)(C)CCCOc1ccc(C#N)cc1 (repeat unit) ?
-45.50

Which glass transition temperature is listed for *Oc1ccc(C(c2ccc(Oc3ccc(C(=O)Nc4ccc(NC(=O)c5ccc(*)cc5)cc4)cc3)cc2)(C(F)(F)F)C(F)(F)F)cc1 (repeat unit) ?
218.00

Which glass transition temperature is listed for *CCCC1(C)CCN(C(=O)CC(C)C(=O)N2CCC(*)(C)CC2)CC1 (repeat unit) ?
72.00

Which glass transition temperature is listed for *CC(SS*)c1ccccc1 (repeat unit) ?
4.80

Which glass transition temperature is listed for *c1ccc(Cc2ccc(N3C(=O)c4cc(-c5ccc(C(C)(C)C)cc5)c(-c5cc6c(cc5-c5ccc(C(C)(C)C)cc5)C(=O)N(*)C6=O)cc4C3=O)cc2)cc1 (repeat unit) ?
360.00

Which glass transition temperature is listed for *c1ccc2oc(-c3cccc(-c4nc5cc(C(*)(C(F)(F)F)C(F)(F)F)ccc5o4)c3)nc2c1 (repeat unit) ?
301.00

Which glass transition temperature is listed for *Oc1ccc(C(=O)c2ccc(Oc3ccc(C(=O)c4c(C(=O)c5ccc(*)cc5)c(-c5ccc(F)cc5)c(-c5ccc(F)cc5)c(-c5ccc(F)cc5)c4-c4ccc(F)cc4)cc3)cc2)cc1 (repeat unit) ?
260.00

###

± gives the standard deviation of the reports.
Give glass transition temperature for every item shown.

Which glass transition temperature is listed for *C(=O)Nc1c(C)cc(C)c(NC(=O)c2ccc3c(c2)C(=O)N(c2c(C)cc(C)c(N4C(=O)c5ccc(*)cc5C4=O)c2C)C3=O)c1C (repeat unit) ?
288.00 °C

Which glass transition temperature is listed for *ON(C(F)(F)F)C(F)(F)C(*)(F)SC(F)(F)F (repeat unit) ?
-48.00 °C

Which glass transition temperature is listed for *N1CCOC1(*)CC (repeat unit) ?
55.00 °C

Which glass transition temperature is listed for *CCOC(=O)O* (repeat unit) [Poly(ethylene carbonate)] ?
10.92 ± 8.4 °C

Which glass transition temperature is listed for *CC(CC)N(*)C(=O)CCCC (repeat unit) ?
52.00 °C

Which glass transition temperature is listed for *Oc1ccc(CC(NC(=O)CCc2ccc(OC(=O)CCCCCCC(*)=O)cc2)C(=O)OCCCCCCCCCCCC)cc1 (repeat unit) ?
15.00 °C

Which glass transition temperature is listed for *CC(CC)O* (repeat unit) ?
-71.50 °C

Which glass transition temperature is listed for *Nc1cccc(C#Cc2ccc(NC(=O)c3cccc(C(*)=O)c3)cc2)c1 (repeat unit) ?
268.00 °C

Which glass transition temperature is listed for *CC(CCl)(CCl)CO* (repeat unit) [Poly(oxy-2,2-dichloromethyltrimethylene) ] ?
-8 ± 10 °C

Which glass transition temperature is listed for *CC(*)OC(=O)C(F)(F)C(F)(F)C(F)(F)F (repeat unit) ?
27.00 °C
